Sourced from patent US11878975B2

Target: human TLR7 (Homo sapiens)
Construct: host or cells: HEK-Blue cells
Sequence (Q9NYK1 27-1049): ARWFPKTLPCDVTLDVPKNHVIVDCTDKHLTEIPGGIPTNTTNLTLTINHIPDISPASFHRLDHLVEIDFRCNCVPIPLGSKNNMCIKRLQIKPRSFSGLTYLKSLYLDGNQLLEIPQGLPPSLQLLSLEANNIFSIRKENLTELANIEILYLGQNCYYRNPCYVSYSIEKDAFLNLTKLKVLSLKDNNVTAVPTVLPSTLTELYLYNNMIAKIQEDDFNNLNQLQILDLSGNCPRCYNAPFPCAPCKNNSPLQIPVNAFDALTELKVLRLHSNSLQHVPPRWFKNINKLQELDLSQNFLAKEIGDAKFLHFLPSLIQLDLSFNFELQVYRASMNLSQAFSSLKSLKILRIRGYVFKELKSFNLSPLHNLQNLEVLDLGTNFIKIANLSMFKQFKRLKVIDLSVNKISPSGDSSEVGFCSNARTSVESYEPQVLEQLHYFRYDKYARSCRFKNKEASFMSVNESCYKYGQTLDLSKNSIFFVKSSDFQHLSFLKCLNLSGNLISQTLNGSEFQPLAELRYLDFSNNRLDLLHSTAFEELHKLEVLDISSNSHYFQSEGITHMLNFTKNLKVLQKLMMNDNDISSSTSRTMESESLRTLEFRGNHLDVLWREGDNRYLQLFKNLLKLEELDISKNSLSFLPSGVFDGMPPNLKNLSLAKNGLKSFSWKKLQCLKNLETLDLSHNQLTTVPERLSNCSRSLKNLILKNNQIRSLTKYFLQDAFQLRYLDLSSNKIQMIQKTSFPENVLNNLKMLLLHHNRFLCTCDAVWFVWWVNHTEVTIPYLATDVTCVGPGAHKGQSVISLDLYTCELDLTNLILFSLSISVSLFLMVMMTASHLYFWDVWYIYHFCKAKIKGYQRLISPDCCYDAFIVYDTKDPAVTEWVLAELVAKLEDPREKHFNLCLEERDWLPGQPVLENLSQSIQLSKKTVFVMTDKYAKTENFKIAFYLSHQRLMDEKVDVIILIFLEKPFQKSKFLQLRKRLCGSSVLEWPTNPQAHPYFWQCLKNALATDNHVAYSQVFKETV
Experiment: TLR7 inhibition reporter assay (HEK-Blue cells, SEAP reporter, gardiquimod stimulation)
Type: cell-based
Conditions: HEK-Blue cells overexpressing human TLR7, SEAP reporter, gardiquimod 7.5 μM
Binary call on IC50 with cut-off 1 nM: strictly below means class 1, and equality or higher means class 0.

Input: Lab log: compare recorded IC50 with 1 nM; is it strictly lower for CNCC(=O)NC1CCC(c2ccc3[nH]c(-c4cn5ncnc5c(C)c4C)c(C(C)C)c3c2)CC1 (stereo not drawn) ?
Output: class 1

Input: Lab log: compare recorded IC50 with 1 nM; is it strictly lower for CCN(C)CC(=O)N1CCOC(c2ccc3[nH]c(-c4cc(OC)c5ncnn5c4)c(C(C)C)c3c2)C1 (stereo not drawn) ?
Output: class 1

Input: Lab log: compare recorded IC50 with 1 nM; is it strictly lower for COc1cc(-c2[nH]c3ccc(C4CN(C)CCO4)cc3c2C(C)C)cn2ncnc12 (stereo not drawn) [Example 301] ?
Output: class 0

Input: Lab log: compare recorded IC50 with 1 nM; is it strictly lower for Cc1cc(-c2[nH]c3ccc(C4CN(CC(=O)N(C)C)C(C)(C)CO4)cc3c2C(C)C)cn2ncnc12 (single isomer, unassigned) ?
Output: class 0

Input: Lab log: compare recorded IC50 with 1 nM; is it strictly lower for COc1cc(-c2[nH]c3ccc(C4CCC(NC5CC5)CC4)cc3c2C(C)C)cn2ncnc12 (stereo not drawn) [Example 10] ?
Output: class 1

Input: Lab log: compare recorded IC50 with 1 nM; is it strictly lower for Cc1cc(-c2[nH]c3ccc(C4CN(CC(=O)N(C)C)CCO4)cc3c2C(C)C)cn2ncnc12 (stereo not drawn) [Example 306] ?
Output: class 0
